# Tested on: OVCAR-8 ovarian
# assay text: NCI tumour cell line growth inhibition, 48 h

- compound: "CCOC(=O)c1c(-c2ccccc2)c(OC)cn1C"
  TGI: "> 10 µM"
- compound: "O=C(Nc1nn(C(=O)c2cccnc2)c(=O)s1)c1ccc(Cl)cc1"
  TGI: "> 100 µM"
- compound: "CS(=O)(=O)Nc1ccc2ccccc2c1"
  TGI: "> 100 µM"
- compound: "CCOC(=O)/C=C/CCC(C)(C)COC(C)=O"
  TGI: "> 10 µM"
- compound: "CCOC(=O)/C=C/c1cccc(F)c1"
  TGI: "> 100 µM"
- compound: "O=C[C@@H](CO)O[C@H](C=O)n1cnc2c(=O)[nH]cnc21"
  TGI: "2020 µM"
- compound: "O=C(/C=C/C12c3ccccc3C(c3ccccc31)C1C(=O)NC(=O)C12)c1ccccc1 (configuration not stated)"
  TGI: "5.1 µM"
- compound: "COc1ccc(-c2cc3cc(Cl)cc(Cl)c3oc2=O)cc1OC"
  TGI: "> 100 µM"
- compound: "Clc1ccc(/C(=C/c2ccccc2)Cn2ccnc2)cc1"
  TGI: "> 100 µM"
- compound: "CC(C)(C)/C(O)=C\\c1nc2cc(F)c(F)cc2[nH]c1=O"
  TGI: "> 100 µM"
- compound: "CC(C)(C)N=NC(C)(C)N=C=O"
  TGI: "> 100 µM"
- compound: "CCCn1cc2c3c(cccc31)C1C=C(C)CN(C)C1C2 (configuration not stated)"
  TGI: "66.5 µM"
- compound: "CC(=O)[CH-]C(=O)c1ccccc1.CC(=O)[CH-]C(=O)c1ccccc1.[O-]c1ccc2c(c1)OCO2.[O-]c1ccc2c(c1)OCO2.[Ti+4]"
  TGI: "> 100 µM"
- compound: "CN(C)CCNCCCNc1c2ccccc2nc2cccc([N+](=O)[O-])c12"
  TGI: "0.0532 µM"
- compound: "O/N=C/c1ccc(O)c(O)c1"
  TGI: "> 100 µM"
- compound: "O=C([C@H](O)[C@@H](O)c1cccc(Cl)c1)C12CC3CC(CC(C3)C1)C2"
  TGI: "4.69 µM"
- compound: "O=C1NC(c2ccccc2)C2(C(=O)O)CN(C3CC3)c3cc(N4CCNCC4)c(F)cc3C2N1 (configuration not stated)"
  TGI: "> 100 µM"
- compound: "C[N+](C)=c1ccc2nc3c(cc(NCCCNc4cc5oc6cc(=[N+](C)C)ccc-6nc5c5ccccc45)c4ccccc43)oc-2c1"
  TGI: "5.85 µM"
- compound: "COc1ccc(OC(C)C(=O)O)c2c(=O)ccccc12 (configuration not stated)"
  TGI: "> 100 µM"
- compound: "CCOC(=O)N1CCN(c2c(N)nc(C)[nH]c2=O)CC1"
  TGI: "> 100 µM"
- compound: "COC(=O)N[C@H]1CCc2c(Cl)c(OC)c(OC)c(OC)c2-c2ccc(SC)c(=O)cc21"
  TGI: "> 100 µM"
- compound: "COc1cc(CNc2oc(-c3ccccc3)c(-c3ccccc3)c2C#N)cc(CN2CCN(C)CC2)c1O"
  TGI: "10.1 µM"

====

Listing of entries alongside the reported TGI.
# System: SK-MEL-5 melanoma
# assay text: NCI tumour cell line growth inhibition, 48 h

- molecule: "CN(C)CCCNc1nc2ccccc2c2[nH]c3ccccc3c12"
  limit operator: "="
  TGI, µM: 8.33
- molecule: "COc1cc2c(c(OC)c1)[C@H](C)N(Cc1ccccc1)C(C)C2 (stereo partly specified)"
  limit operator: "="
  TGI, µM: 90.3
- molecule: "COc1cc(C(=O)c2cocc2C(=O)c2ccc3c(c2)OCO3)cc(OC)c1OC"
  limit operator: "="
  TGI, µM: 25.5
- molecule: "Clc1ccc(/C(=C/c2ccccc2)Cn2ccnc2)cc1"
  limit operator: "="
  TGI, µM: 36.4
- molecule: "CC1=NOC(=O)/C1=C/c1ccc2c(c1)OCO2"
  limit operator: ">"
  TGI, µM: 100
- molecule: "CO[P@@]1(=O)O[C@@H](c2ccccc2)[C@H](O)[C@]1(O)c1ccccc1"
  limit operator: ">"
  TGI, µM: 100

====

# Tested on: SNB-75 CNS
# assay text: NCI tumour cell line growth inhibition, 48 h; in the data active = GI50 below about 0.43 µM; inactive = the rest
Possible outcomes: 1 (yes) = active, 0 (no) = inactive

- compound: "Cc1ccc(C(=O)NC2CC2)cc1-c1ccc2[nH]ncc2c1"
  class assignment: "0 (no)"
- compound: "O=C1NC(c2ccccc2)C2(C(=O)O)CN(C3CC3)c3cc(N4CCNCC4)c(F)cc3C2N1 (stereo not given)"
  class assignment: "0 (no)"
- compound: "COc1ccc2[nH]c(C(=O)OCc3ccc4c(Cl)cc(Cl)c(O)c4n3)cc2c1"
  class assignment: "1 (yes)"
- compound: "CN(C)CCCNc1nc2ccccc2c2[nH]c3ccccc3c12"
  class assignment: "0 (no)"
- compound: "O=C([O-])CC(=O)[O-].[NH-][C@@H]1CCCC[C@H]1[NH-].[Pt+4]"
  class assignment: "0 (no)"
- compound: "COc1cc(CNc2oc(-c3ccccc3)c(-c3ccccc3)c2C#N)cc(CN2CCN(C)CC2)c1O"
  class assignment: "0 (no)"
- compound: "O=P(O)(O)OCC1OC(n2cnc3c(NCc4ccccc4)ncnc32)C(O)C1O (stereo not given)"
  class assignment: "0 (no)"
- compound: "CC(C)(C)OC(=O)Nc1ccc2c(c1)C(NC(=O)Nc1cccc(C#N)c1)CC(C)(C)O2 (stereo not given)"
  class assignment: "0 (no)"
- compound: "COc1ccc2nc3cc(Cl)ccc3c(Nc3cc(CN4CCCC4)c(O)c(CN4CCCC4)c3)c2n1"
  class assignment: "0 (no)"
- compound: "COc1c(N2CCN(CN3C(=O)C(=Nc4ccc(S(=O)(=O)Nc5ncccn5)cc4)c4cc(Cl)ccc43)C(C)C2)c(F)cc2c(=O)c(C(=O)O)cn(C3CC3)c12 (stereo not given)"
  class assignment: "0 (no)"

====

# Tested on: SR leukemia
# assay text: NCI tumour cell line growth inhibition, 48 h
Listing of entries alongside the reported TGI.

- compound: "O=C(O)c1ccc(SSc2ccc(C(=O)O)cn2)nc1"
  system under test: "SR leukemia"
  TGI: "> 100 µM"
- compound: "CC(C)(C)c1ccnc(N=C2N=C(Nc3cc(C(C)(C)C)ccn3)c3ccccc32)c1"
  system under test: "SR leukemia"
  TGI: "> 100 µM"
- compound: "COc1cc2c(cc1OCc1ccccc1)NC(=O)[C@@H]1CCCN1C2=O"
  system under test: "SR leukemia"
  TGI: "> 100 µM"
- compound: "CCOC(=O)c1csc(NC(=O)CCN2CCN(C)CC2)n1"
  system under test: "SR leukemia"
  TGI: "> 100 µM"
- compound: "CCC(CO)Nc1nc2c(c(=O)n(C)c(=O)n2C)n1CCO (stereo not given)"
  system under test: "SR leukemia"
  TGI: "> 100 µM"
- compound: "CC(C)=CCc1c(O)cc2oc(-c3ccc(O)cc3O)cc(=O)c2c1O"
  system under test: "SR leukemia"
  TGI: "> 65.6 µM"
- compound: "COc1c(N2CCN(CN3C(=O)C(=Nc4ccc(S(=O)(=O)Nc5ncccn5)cc4)c4cc(Cl)ccc43)C(C)C2)c(F)cc2c(=O)c(C(=O)O)cn(C3CC3)c12 (stereo not given)"
  system under test: "SR leukemia"
  TGI: "> 50 µM"
- compound: "COC(=O)CC[C@]12C[C@]13CC[C@]1(C)C4C(C)C[C@]5(CC(C)C(=O)O5)OC4CC1(C)C3CCC2C(C)(C)O (stereo not given in full)"
  system under test: "SR leukemia"
  TGI: "> 100 µM"
- compound: "C=CN(C=C)C(=O)Cn1cc(-c2ccccc2)nn1"
  system under test: "SR leukemia"
  TGI: "> 100 µM"
- compound: "Cc1cccc2c1[nH]c(=O)c1c3ccccc3cn21"
  system under test: "SR leukemia"
  TGI: "4.15 µM"

====

# System: UO-31 renal
# assay text: NCI tumour cell line growth inhibition, 48 h
experimental readout: TGI

- compound: "CCOC(=O)c1csc(NC(=O)CCN2CCCC2)n1"
  system under test: "UO-31 renal"
  observed result: "> 100 µM"
- compound: "CC1=C(C(=O)OCCO[N+](=O)[O-])C(c2ccccc2[N+](=O)[O-])C(C(=O)OC(C)C)=C(C)N1 (stereo not given)"
  system under test: "UO-31 renal"
  observed result: "26.2 µM"
- compound: "NC(=O)c1ccc[n+](C2=C([O-])c3ccccc3C(=O)/C2=N\\S(=O)(=O)c2ccccc2)c1"
  system under test: "UO-31 renal"
  observed result: "27.9 µM"
- compound: "CO[C@@]1(c2ccccc2)O[C@H]2OCCC2[C@H]1c1ccc(Cl)cc1 (stereo not given in full)"
  system under test: "UO-31 renal"
  observed result: "90.4 µM"
- compound: "CCc1nc2c(c(N(C)C)c1C(=O)OC)CCc1ccccc1-2"
  system under test: "UO-31 renal"
  observed result: "> 100 µM"
- compound: "CCOC(=O)N1CCN(c2c(N)nc(C)[nH]c2=O)CC1"
  system under test: "UO-31 renal"
  observed result: "> 100 µM"
- compound: "NC(Cc1ccccc1)c1nccs1 (stereo not given)"
  system under test: "UO-31 renal"
  observed result: "> 100 µM"
- compound: "O=C([C@H](O)[C@@H](O)c1cccc(Cl)c1)C12CC3CC(CC(C3)C1)C2"
  system under test: "UO-31 renal"
  observed result: "3.83 µM"
- compound: "COc1cc(NCCCCCN=C(N)NC(N)=NC(C)C)c2ncccc2c1"
  system under test: "UO-31 renal"
  observed result: "> 100 µM"
- compound: "Cc1nc2c(=O)n(-c3ccccc3)c(=O)n(-c3ccccc3)c2o1"
  system under test: "UO-31 renal"
  observed result: "> 100 µM"
